Attribute: melting point

Check out these entries, answers already filled in.
Please report the recorded melting point for CCNC(Cc1ccc(O)cc1)C(=O)OCC (stereo unspecified) .
87 to 89 °C

Please report the recorded melting point for `CCOC(=O)c1sc(N)nc1-c1ccc(F)cc1` .
205 to 208 °C

***
Please report the recorded melting point for `CC(C)(C)c1ccc(Nc2nnc(Cc3cnc(O)c(-c4ccco4)c3)c3ccccc23)cc1` .
180 to 182 °C

Please report the recorded melting point for `COc1c(OC)c(OC)c2c(=O)cc(-c3ccc(OCc4ccccc4)cc3)oc2c1OC` .
132 to 134 °C

Please report the recorded melting point for O=C1OC(Cc2ccccc2)CN1C(=O)c1ccccc1 (stereo unspecified) .
109 to 110 °C

Please report the recorded melting point for `Cc1nc(C)c2c(n1)N(Cc1ccc(-c3ccccc3-c3nnnn3C(c3ccccc3)(c3ccccc3)c3ccccc3)cc1)C(=O)CC2` .
160 to 161 °C

Please report the recorded melting point for `CNC(=O)N1CC(Oc2ccccc2C(F)(F)F)C1` .
134 to 136 °C

Please report the recorded melting point for `Fc1ccc(CN2CCC(Nc3ccc(C(F)(F)F)nn3)CC2)cc1` .
163 to 165 °C

Please report the recorded melting point for `Cc1cc(OC23CC4CC(CC(C4)C2)C3)ccc1N` .
143 to 145 °C

Please report the recorded melting point for COc1cccc2c1CC1CC(CCN3CCC(c4c[nH]c5ccccc45)CC3)CN(C)C1C2 (stereo unspecified) .
215 to 217 °C

Please report the recorded melting point for `Oc1ccc2c(c1)COc1c-2cc2ccc(O)cc2c1-c1ccncc1` .
> 250 °C

Please report the recorded melting point for COc1cc(C(C)C)ccc1C1(O)C(=O)c2cccc(N)c2C1=O (stereo unspecified) .
219 to 220 °C

Please report the recorded melting point for `CN(C)S(=O)(=O)N1CCN(c2ccnc(CO)n2)CC1` .
148 to 149 °C

Please report the recorded melting point for `Cc1cc(-c2cc(C(F)(F)F)n3nc(CC#N)c(C#N)c3n2)ccc1Cl` .
238 °C

Please report the recorded melting point for `O=C(O)c1ccc(-c2cc3cccnc3c(-c3cccc4nonc34)n2)cc1` .
> 300 °C

Please report the recorded melting point for CCCC(NS(=O)(=O)c1ccc(NC(C)=O)cc1)P(=O)(Oc1ccccc1)Oc1ccccc1 (stereo unspecified) .
183 to 186 °C

Please report the recorded melting point for Cc1oc(-c2ccc(C(F)(F)F)cc2)nc1COc1cccc(C#CC(C)n2oc(=O)[nH]c2=O)c1 (stereo unspecified) .
84 to 86 °C

Please report the recorded melting point for `CCOC(=O)COC(=O)Cc1ccc2cc(OC)ccc2c1` .
38 to 40 °C

Please report the recorded melting point for CC(CNc1ccc(C(=O)O)cc1)Oc1ccc(Cl)c2ccccc12 (stereo unspecified) .
165 to 168 °C

Please report the recorded melting point for `CCC(CC)COc1c(-c2ccc(S(C)(=O)=O)cc2)cnn(-c2ccc(F)cc2)c1=O` .
107 to 108 °C

Please report the recorded melting point for `CC(C)(C)c1ccccc1N1CCN(C(=O)c2ncoc2-c2ccccc2)CC1` .
146 to 148 °C

Please report the recorded melting point for `COc1cc(N)ccc1OCCCN1CCN(c2ccccc2)CC1` .
112 to 113 °C

Please report the recorded melting point for `Cc1oc(-c2ccccc2)nc1COc1ccc(CON=C(CCCCCCC(=O)O)c2ccc(F)cc2)cc1` .
56 to 57 °C

Please report the recorded melting point for O=C1N(Cc2nccnc2C(F)(F)F)c2ccccc2C12COc1cc3c(cc12)OCCO3 (stereo unspecified) .
230 to 232 °C

Please report the recorded melting point for `CCCn1nc(C(=O)OCC)cc1CC(C)(C)NC(=O)OC(C)(C)C` .
109 to 111 °C
